Each item that follows carries a reported pKd.
systemTested: T1, Human CD24 (human, UniProt P25063 27-59, limits assumed)
T1 chain (looked up): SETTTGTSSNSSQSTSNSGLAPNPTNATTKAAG
testDescription: SPR affinity ranking, 1:1 binding, analyte conc. 19.71 nM
// field semantics: pKd = negative decimal log of concentration (mol/L)

binder="Antibody No 9, lead clone of 4451H (HC T59Y; LC S30K, T97I) (antibody, V domains shown) VH: QVQLVQSGAEVKKPGASVKVSCKASGYDFTGYHMNWVRQAPGQGLEWMGEINPITSDKYFNQKFKSRVTMTRDTSISTAYMELSRLRSDDTAVYYCARRDYGTSLDYWGQGTTVTVSS VL: DIQLTQSPSFLSASVGDRVTITCRASKSIKKYLAWYQQKPGKAPKLLIYAGSTLHSGIPSRFRGSGSGTEFTLTISSLQPEDFATYYCQQHNEYPIIFGQGTKLEIK" resultnumber=7.94

Next binder, pKd to be filled in.
query: Consider the binder Antibody No 14, lead clone of 4451H (HC T59Y; LC T97I) (antibody, V domains shown) VH: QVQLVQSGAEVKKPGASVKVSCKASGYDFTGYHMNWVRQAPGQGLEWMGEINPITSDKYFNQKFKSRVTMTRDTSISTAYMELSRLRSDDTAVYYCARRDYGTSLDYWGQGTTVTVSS VL: DIQLTQSPSFLSASVGDRVTITCRASKSISKYLAWYQQKPGKAPKLLIYAGSTLHSGIPSRFRGSGSGTEFTLTISSLQPEDFATYYCQQHNEYPIIFGQGTKLEIK and give its measured pKd.
result: 8.08
